For each record, write down the corresponding pKi.
TARGET_SYSTEM: factor VIIa/tissue factor complex (Homo sapiens)
Construct: 9 nM of soluble factor VIIa
Sequence (P08709 213-466 limits assumed): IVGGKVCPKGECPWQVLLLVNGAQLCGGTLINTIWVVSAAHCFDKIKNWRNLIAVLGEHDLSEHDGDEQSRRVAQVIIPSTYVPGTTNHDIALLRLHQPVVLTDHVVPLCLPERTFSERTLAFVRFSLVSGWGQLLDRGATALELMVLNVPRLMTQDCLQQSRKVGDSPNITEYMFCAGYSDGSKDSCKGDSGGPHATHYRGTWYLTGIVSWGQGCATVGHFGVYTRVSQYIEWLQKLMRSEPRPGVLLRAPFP
Sequence (P08709 61-212 limits assumed): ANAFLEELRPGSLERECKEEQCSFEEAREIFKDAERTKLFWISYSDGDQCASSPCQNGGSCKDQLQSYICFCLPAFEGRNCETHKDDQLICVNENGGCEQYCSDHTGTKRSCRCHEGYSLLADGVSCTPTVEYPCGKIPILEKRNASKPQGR
Sequence (P13726 33-295 partner): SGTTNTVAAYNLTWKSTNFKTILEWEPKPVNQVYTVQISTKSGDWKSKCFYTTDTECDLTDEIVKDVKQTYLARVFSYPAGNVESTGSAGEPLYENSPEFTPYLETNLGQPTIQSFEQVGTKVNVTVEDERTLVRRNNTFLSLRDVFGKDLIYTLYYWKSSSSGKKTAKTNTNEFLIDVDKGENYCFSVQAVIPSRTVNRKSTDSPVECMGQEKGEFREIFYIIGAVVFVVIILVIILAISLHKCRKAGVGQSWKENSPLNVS
ASSAY_TEXT: inhibition of the amidolytic activity of factor VIIa/tissue factor complex (chromogenic peptide substrate)
CONDITION_DETAILS: soluble factor VIIa, substrate Chromozym-tPA, pH 7.5, room temperature
Method: The measurements were carried out by an automated robotic assay on microtitre plates at room temperature. […] After an incubation time of 15 minutes the reaction was started by the addition of 50 μl of chromogenic substrate Chromozym-tPA (3.5 mM, MeSO2-D-Phe-Gly-Arg-paranitroanilide) and the hydrolysis of the substrate was followed spectrophotometrically on a kinetic microtitre plate reader over 10 minutes. […]
Counter-ions that a name gives are not always drawn.
Reminder that pKi is minus the log10 of a molar concentration.

Please report pKi for the following compound: CCOC(C(=O)NCc1c(F)cc(C(=N)N)cc1F)c1c(F)cc(-c2ccc(N)nc2)cc1F (racemic) [Example 336.2, acetate]
6.22

Output measured pKi for this item: CCOC(C(=O)NCc1ccc(C(=N)N)cc1)c1c(F)cc(-c2ccc(N)nc2)cc1F (racemic) [Example 271, hydrochloride]
6.81

Return the recorded pKi value; entry: CCOC(C(=O)NCc1ccc(C(=N)N)cc1)c1c(F)cc(-c2ccc(N)cn2)cc1F (racemic) [Example 269, hydrochloride]
6.49

Find the measured pKi of CCOC(C(=O)NCc1ccc(C(=N)N)cc1)c1c(F)cc(OCc2ccccn2)cc1F (racemic) [Example 294.2, hydrochloride] and report it.
6.23
